FYI, the data here is from the supplement of paper PMC4862054.

System: CAL-85-1
method.summary: normalised response (% of control), CellTox Green; higher = less cell death (100 = DMSO, 0 = benzethonium chloride kill control)
test.context: incubation time: 72 h
Let's look at some molecules and their measured normalised response.
assay.endpoint: normalised response (%)

• CCc1cnn2c(NCc3ccc[n+]([O-])c3)cc(N3CCCC[C@H]3CCO)nc12 [Dinaciclib] (100 nM) = 21.7
• C[C@]12C=CC(=O)C=C1CC[C@@H]1[C@@H]2C(=O)C[C@@]2(C)[C@H]1CC[C@]2(O)C(=O)CO [Prednisone] (100 nM) = 104
• CC(C)C(=O)Nc1ccc([N+](=O)[O-])c(C(F)(F)F)c1 [Flutamide] (100 nM) = 89.6
• Cn1cc(C[C@@H](N)C(=O)O)c2ccccc21 [1-methyl-D-tryptophan] (50 nM) = 98.5
